Target: HLA-A*0203 (human)
Details: remark: other sources report otherwise
pIC50: −log10 of the molar value.
Measurement Type: pIC50

>>> readout_number("SLHLLSNDMCA [Peptide 1419.14, HuK2.175]")
7.14
>>> readout_number("FLRPRSLQCV [Peptide 1419.07, HuK2.165]")
8.40
